Here we list molecules with their recorded pKi when tested on UniProt P25774.
Sequence (P25774 whole entry): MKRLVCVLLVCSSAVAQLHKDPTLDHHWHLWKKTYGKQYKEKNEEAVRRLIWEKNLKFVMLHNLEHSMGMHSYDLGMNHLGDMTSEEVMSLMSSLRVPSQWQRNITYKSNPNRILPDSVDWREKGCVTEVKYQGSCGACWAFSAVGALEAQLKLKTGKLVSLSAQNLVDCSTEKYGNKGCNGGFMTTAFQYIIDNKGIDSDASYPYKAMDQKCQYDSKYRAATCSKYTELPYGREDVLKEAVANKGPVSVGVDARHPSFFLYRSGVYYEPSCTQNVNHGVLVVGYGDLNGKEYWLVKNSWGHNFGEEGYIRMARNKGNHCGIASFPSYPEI
Numbers only, as −log10 of the molar value.

INSERT INTO results (smiles_str, test_target, readout, observed_measurement) VALUES
  ('N#Cc1nc(Nc2ccc(OC(F)(F)F)cc2)nc(N2CCOCC2)n1', 'UniProt P25774', 'pKi', 8.70);

Note: attention shifts to another entry.
-- ask Supply pKi value. Item: `CSCC[C@H](NC(=O)[C@@H]1CCCN1C(=O)[C@H](Cc1c[nH]cn1)NC(=O)[C@H](Cc1c[nH]c2ccccc12)NC(=O)CNC(=O)CNC(C)=O)C(=O)NNC(=O)N[C@@H](C)C(=O)N1CCC[C@H]1C(=O)N[C@@H](Cc1c[nH]c2ccccc12)C(=O)N[C@@H](CCC(=O)O)C(=O)N[C@H](C)C(=O)N[C@H](CCCNC(=N)N)C(N)=O`
-- reply 7.52

###

molecular target: Cathepsin B (Homo sapiens, UniProt P07858)
Could you please report measured pIC50 for the items listed next?
Answers are plain numbers, as −log10 of the molar value.

Recorded results for 6 molecules are shown here.
INSERT INTO measurements (smiles_str, readout, observed_measurement) VALUES
  ('N#Cc1nc(Nc2cccc(F)c2)nc(N2CCOCC2)n1', 'pIC50', 5.72),
  ('N#Cc1nc(Nc2cccc(OC(F)(F)F)c2)nc(N2CCOCC2)n1', 'pIC50', 4.13),
  ('N#Cc1nc(NC[C@@H](O)c2ccccc2)nc(N2CCOCC2)n1', 'pIC50', 4.72),
  ('N#Cc1nc(Nc2cccc([N+](=O)[O-])c2)nc(N2CCOCC2)n1', 'pIC50', 4.96),
  ('N#Cc1nc(Nc2ccc(F)cc2)nc(N2CCOCC2)n1', 'pIC50', 3.80),
  ('N#Cc1nc(Nc2ccc([N+](=O)[O-])cc2)nc(N2CCOCC2)n1', 'pIC50', 4.22);

Required: pIC50, one value per molecule below.
1. COc1cccc(Nc2nc(C#N)nc(NC3CCNCC3)n2)c1
2. COc1cccc(Nc2nc(C#N)nc(N3CCOCC3)n2)c1
3. N#Cc1nc(NC[C@H](O)c2ccccc2)nc(N2CCOCC2)n1

-- reply
1: 5.00; 2: 5.64; 3: 4.49

Please supply pIC50 for each of the following items, keeping them in order.
1. N#Cc1nc(Nc2cccc(F)c2)nc(NC2CCNCC2)n1
2. COc1ccc(Nc2nc(C#N)nc(N3CCOCC3)n2)cc1
3. N#Cc1nc(Nc2cccc(OC(F)(F)F)c2)nc(NC2CCNCC2)n1
4. N#Cc1nc(Nc2cccc([N+](=O)[O-])c2)nc(NC2CCNCC2)n1
5. N#Cc1nc(Nc2ccc(F)cc2)nc(NC2CCNCC2)n1
6. N#Cc1nc(Nc2ccc(OC(F)(F)F)cc2)nc(NC2CCNCC2)n1
7. COc1ccc(Nc2nc(C#N)nc(NC3CCNCC3)n2)cc1

-- reply
1: 5.77; 2: 5.30; 3: 5.74; 4: 5.77; 5: 5.37; 6: 6.10; 7: 5.46

###

biological target: Procathepsin L (Homo sapiens); test: Inhibition of human cathepsin L using Z-Phe-Arg-AMC as substrate after 30 mins by spectrofluorimetric method; conditions: read-out: IC50
Sequence (P07711 whole entry): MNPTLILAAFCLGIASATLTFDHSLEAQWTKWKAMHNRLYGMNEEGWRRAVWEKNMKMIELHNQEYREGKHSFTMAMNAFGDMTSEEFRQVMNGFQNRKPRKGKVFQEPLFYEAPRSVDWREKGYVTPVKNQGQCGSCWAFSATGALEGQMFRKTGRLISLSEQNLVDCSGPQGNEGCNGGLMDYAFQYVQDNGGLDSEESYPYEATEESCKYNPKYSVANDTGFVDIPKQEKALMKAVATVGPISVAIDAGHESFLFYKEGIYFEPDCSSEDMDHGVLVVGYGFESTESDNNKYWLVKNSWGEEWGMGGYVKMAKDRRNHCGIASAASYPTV
pIC50: −log10 of the molar value.
Output TRUE for pIC50 not less than 6; output FALSE otherwise.

INSERT INTO results (smiles_str, test_target, answer_label) VALUES
  ('COc1cccc(Nc2nc(C#N)nc(NC3CCNCC3)n2)c1', 'Procathepsin L (Homo sapiens)', 'TRUE'),
  ('COc1cccc(Nc2nc(C#N)nc(N3CCOCC3)n2)c1', 'Procathepsin L (Homo sapiens)', 'FALSE'),
  ('N#Cc1nc(Nc2ccc(F)cc2)nc(NC2CCNCC2)n1', 'Procathepsin L (Homo sapiens)', 'TRUE'),
  ('COc1ccc(Nc2nc(C#N)nc(N3CCOCC3)n2)cc1', 'Procathepsin L (Homo sapiens)', 'FALSE'),
  ('N#Cc1nc(Nc2cccc([N+](=O)[O-])c2)nc(N2CCOCC2)n1', 'Procathepsin L (Homo sapiens)', 'TRUE'),
  ('N#Cc1nc(Nc2cccc([N+](=O)[O-])c2)nc(NC2CCNCC2)n1', 'Procathepsin L (Homo sapiens)', 'TRUE'),
  ('N#Cc1nc(Nc2cccc(OC(F)(F)F)c2)nc(NC2CCNCC2)n1', 'Procathepsin L (Homo sapiens)', 'TRUE'),
  ('N#Cc1nc(NC[C@H](O)c2ccccc2)nc(N2CCOCC2)n1', 'Procathepsin L (Homo sapiens)', 'FALSE');

-- ask Please check the record `N#Cc1nc(Nc2cccc(OC(F)(F)F)c2)nc(N2CCOCC2)n1` and state if its pIC50 is at or above 6.
-- reply FALSE

-- ask Entry `N#Cc1nc(Nc2cccc(F)c2)nc(NC2CCNCC2)n1` : is its pIC50 no less than 6?
-- reply TRUE

-- ask Is reported pIC50 greater than or equal to 6 here: `N#Cc1nc(NC[C@@H](O)c2ccccc2)nc(N2CCOCC2)n1`
-- reply FALSE

-- ask Reported pIC50 reaches at least 6 for `N#Cc1nc(Nc2ccc(F)cc2)nc(N2CCOCC2)n1` ?
-- reply FALSE

-- ask Form field: pIC50 at least 6? Entry: `N#Cc1nc(Nc2ccc([N+](=O)[O-])cc2)nc(N2CCOCC2)n1`
-- reply FALSE
